The reported numbers originate from ChEMBL document CHEMBL3098015.

- Assay Procedure: Cytotoxicity against mouse RAW264.7 cells at 50 uM after 72 hrs by MTT assay
- Type: cell-based
- Test Conditions: read-out: INH
Endpoint Name: cytotoxicity at 72 h, 50 µM (%)
Please give a number only; it is taken to be in %.

Past entries and their recorded results:
{"columns": ["Compound", "cytotoxicity at 72 h, 50 µM [%]"],
 "data": [
  ["CCN1CCN(CC(=O)N2CCN(c3cc4c(cc3F)c(=O)c(C(=O)O)cn4C3CC3)CC2)CC1", 13.3],
  ["O=C(O)c1cn(C2CC2)c2cc(N3CCN(C(=O)CN4CCN(c5ncccn5)CC4)CC3)c(F)cc2c1=O", 11],
  ["O=C(O)c1cn(C2CC2)c2cc(N3CCN(C(=O)CN4CCN(c5ccccc5Cl)CC4)CC3)c(F)cc2c1=O", 14.9]
]}

The recorded cytotoxicity at 72 h, 50 µM for O=C(O)c1cn(C2CC2)c2cc(N3CCN(C(=O)CN4CCN(C(c5ccccc5)c5ccccc5)CC4)CC3)c(F)cc2c1=O is 25.9

Value of cytotoxicity at 72 h, 50 µM reported for the compound O=C(O)c1cn(C2CC2)c2cc(N3CCN(C(=O)CN4CCN(Cc5ccccc5)CC4)CC3)c(F)cc2c1=O is 15.5

The compound listed as CC(=O)N1CCN(CC(=O)N2CCN(c3cc4c(cc3F)c(=O)c(C(=O)O)cn4C3CC3)CC2)CC1 has a reported cytotoxicity at 72 h, 50 µM of 16.2

Per the record, CC(c1ccccc1)N1CCN(CC(=O)N2CCN(c3cc4c(cc3F)c(=O)c(C(=O)O)cn4C3CC3)CC2)CC1 (stereo not drawn) has cytotoxicity at 72 h, 50 µM of 16.9

Per the records, this compound ( Cc1cccc(N2CCN(CC(=O)N3CCN(c4cc5c(cc4F)c(=O)c(C(=O)O)cn5C4CC4)CC3)CC2)c1 ) has cytotoxicity at 72 h, 50 µM equal to 16.2

====

- Assay Procedure: Selectivity index, ratio of IC50 for mouse RAW264.7 cells to MIC for Mycobacterium tuberculosis H37Rv ATCC 27294
- Assay type: toxicity
- Test Conditions: read-out: Selectivity Index
Endpoint Name: selectivity ratio

{"columns": ["Compound", "Assay Result"],
 "data": [
  ["CC(=O)N1CCN(CC(=O)N2CCN(c3cc4c(cc3F)c(=O)c(C(=O)O)cn4C3CC3)CC2)CC1", 9.59]
]}

Lookup result for CC(c1ccccc1)N1CCN(CC(=O)N2CCN(c3cc4c(cc3F)c(=O)c(C(=O)O)cn4C3CC3)CC2)CC1 (stereo not drawn) ; measured selectivity ratio: 5.17

Entry O=C(O)c1cn(C2CC2)c2cc(N3CCN(C(=O)CN4CCN(c5ccccc5Cl)CC4)CC3)c(F)cc2c1=O ; selectivity ratio = 5.92

Per the record, O=C(O)c1cn(C2CC2)c2cc(N3CCN(C(=O)CN4CCN(C(c5ccccc5)c5ccccc5)CC4)CC3)c(F)cc2c1=O has selectivity ratio of 3.75

# selectivity ratio of CCN1CCN(CC(=O)N2CCN(c3cc4c(cc3F)c(=O)c(C(=O)O)cn4C3CC3)CC2)CC1 = 5.68

So, O=C(O)c1cn(C2CC2)c2cc(N3CCN(C(=O)CN4CCN(c5ncccn5)CC4)CC3)c(F)cc2c1=O ? Its selectivity ratio was 3.79

Short answer for O=C(O)c1cn(C2CC2)c2cc(N3CCN(C(=O)CN4CCN(Cc5ccccc5)CC4)CC3)c(F)cc2c1=O : selectivity ratio was 22

get_value(item= Cc1cccc(N2CCN(CC(=O)N3CCN(c4cc5c(cc4F)c(=O)c(C(=O)O)cn5C4CC4)CC3)CC2)c1 , readout=selectivity ratio) returns 5.26
